Target: α1β2γ2 GABA receptors (α1β2γ2-CHO-TRex stable cell strain) (Homo sapiens, UniProt P14867+P47870)
Construct: expressed in transfected cells
Sequence (P14867 28-456): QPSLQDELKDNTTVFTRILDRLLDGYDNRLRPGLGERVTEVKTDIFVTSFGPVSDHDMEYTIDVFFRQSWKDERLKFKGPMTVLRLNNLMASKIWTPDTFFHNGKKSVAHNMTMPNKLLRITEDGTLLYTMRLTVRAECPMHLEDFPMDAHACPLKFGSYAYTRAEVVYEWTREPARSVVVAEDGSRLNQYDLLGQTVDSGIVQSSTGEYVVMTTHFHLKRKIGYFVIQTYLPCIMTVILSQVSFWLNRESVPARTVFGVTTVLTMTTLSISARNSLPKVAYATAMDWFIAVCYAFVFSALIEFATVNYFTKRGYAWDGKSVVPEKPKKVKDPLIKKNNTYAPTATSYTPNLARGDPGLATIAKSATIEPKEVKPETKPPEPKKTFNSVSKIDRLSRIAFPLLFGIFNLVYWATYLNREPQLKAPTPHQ
Sequence (P47870 25-512 limits assumed): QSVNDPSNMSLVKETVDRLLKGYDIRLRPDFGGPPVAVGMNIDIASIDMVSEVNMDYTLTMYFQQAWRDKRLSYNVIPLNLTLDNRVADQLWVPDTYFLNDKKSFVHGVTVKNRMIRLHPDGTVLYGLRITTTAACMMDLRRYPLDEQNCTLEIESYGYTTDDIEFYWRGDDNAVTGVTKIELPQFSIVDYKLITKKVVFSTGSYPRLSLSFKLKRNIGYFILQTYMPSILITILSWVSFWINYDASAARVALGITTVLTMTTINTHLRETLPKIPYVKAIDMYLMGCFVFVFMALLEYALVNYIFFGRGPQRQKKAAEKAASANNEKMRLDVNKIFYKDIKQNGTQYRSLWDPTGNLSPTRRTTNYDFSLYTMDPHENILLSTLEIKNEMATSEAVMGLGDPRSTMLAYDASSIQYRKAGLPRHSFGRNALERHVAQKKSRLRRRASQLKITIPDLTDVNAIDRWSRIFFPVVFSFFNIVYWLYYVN
Sequence (P18507 40-475 partner): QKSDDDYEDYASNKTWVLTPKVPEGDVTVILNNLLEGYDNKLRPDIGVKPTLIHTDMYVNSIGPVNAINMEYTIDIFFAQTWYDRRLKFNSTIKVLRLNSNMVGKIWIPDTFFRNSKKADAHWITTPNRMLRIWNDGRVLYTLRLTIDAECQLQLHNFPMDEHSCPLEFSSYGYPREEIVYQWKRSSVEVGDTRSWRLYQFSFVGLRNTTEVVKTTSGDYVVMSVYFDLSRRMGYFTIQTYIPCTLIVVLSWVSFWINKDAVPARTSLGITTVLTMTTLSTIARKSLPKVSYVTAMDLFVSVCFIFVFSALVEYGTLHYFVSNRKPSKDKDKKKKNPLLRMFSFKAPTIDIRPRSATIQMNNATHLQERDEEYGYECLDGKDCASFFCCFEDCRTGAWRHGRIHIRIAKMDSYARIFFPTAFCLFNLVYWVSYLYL
Measurement notes: Whole-cell patch clamp, intrasynaptic functional activity (positive allosteric regulation of GABA-induced current)
Assay type: cell-based
Test conditions: patch clamp -60 mV, GABA at EC10-20, α1β2γ2-CHO-TRex cells
Entries and their measured Emax follow.
The response must be a number in % with no trailing unit.

// worked examples, Emax included
C[C@@]1(O)CC[C@H]2[C@H](CC[C@@H]3[C@@H]2CC[C@]2(C)[C@@H](C(=O)Cn4cnn(-c5cccc(C(N)=O)c5)c4=O)CC[C@@H]32)C1	764
Cc1cc(-n2ncn(CC(=O)[C@H]3CC[C@H]4[C@@H]5CC[C@@H]6C[C@](C)(O)CC[C@@H]6[C@H]5CC[C@]34C)c2=O)ccn1	871
C[C@@]1(O)CC[C@H]2[C@H](CC[C@@H]3[C@@H]2CC[C@]2(C)[C@@H](C(=O)Cn4cnn(-c5cc(F)cc(C#N)c5)c4=O)CC[C@@H]32)C1	518
C[C@@]1(O)CC[C@H]2[C@H](CC[C@@H]3[C@@H]2CC[C@]2(C)[C@@H](C(=O)Cn4cnn(-c5cc(Cl)ccn5)c4=O)CC[C@@H]32)C1	624

Please examine the following record next.
Task: Consider the molecule C[C@@]1(O)CC[C@H]2[C@H](CC[C@@H]3[C@@H]2CC[C@]2(C)[C@@H](C(=O)Cn4cnn(C5CCCC5)c4=O)CC[C@@H]32)C1 and give its measured Emax.
Result: 691
